# credit: the supplement of paper PMC10567573

B1: SCNN1D (parent)
chain: FLGHHSFSVRPGTEATISIREDEV

Variants of: B1
Measurement protocol: protein stability index of a GFP-peptide fusion (GPS, HEK-293T) (PSI 1-6); higher = more stable;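 further: lentivirally expressed fusions sorted by FACS into six bins by GFP to DsRed ratio, PSI derived from sequencing read proportions per bin multiplied by bin number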
Test context: c terminus: a fixed tail appended
Quick rule for you: protein stability index at 2 or higher means y, lower means n.

| Mutation id | Group |
| --- | --- |
| G12V | n |
| E21N | y |
| E14K | n |
| T13S | n |
| S18D | n |
| V9Y | y |
| F1T | y |
| F7V | y |
| R20A | y |
| E23R | n |
| I17S | n |
| A15V | n |
| F1W | y |
| D22H | n |
| D22I | y |
| I17E | y |
| H5E | n |
| E23N | y |
| E14F | n |
| T13N | n |
| I19Y | n |
